Please find below Ki measurements for UniProt:P31645, combined from several publications.
property.label: Ki (nM)

# compound, measurement.units, quantitative.readout
data = [
    ("Fc1cccc(Oc2ccccc2Cl)c1OC1CCNC1 (configuration not stated)", "nM", 2230),
]

(A) COc1ccc(C2CN(C)Cc3cc(OCCCN4CCN(C(=O)c5ccncc5)CC4)ccc32)cc1 (configuration not stated)
(B) Cc1ccc(Oc2cc(OCCF)ccc2CN(C)C)c(N)c1
(C) O=C(c1cccc(Cl)c1Cl)N(C1=CCOC=C1)[C@H]1CCNC1
(D) CC(C)CN(Cc1cccc(C(F)(F)F)c1Cl)C1CCNCC1
(E) Cc1ccc(Sc2ccccc2CN(C)C)c(N)c1
Q: Sort by Ki, descending. Kindly provide the labels arranged according to the requested ordering.
Result: B, A, C, D, E

(P) O=C1NCc2ccc3c(c21)CC(N(CCCc1c[nH]c2ccc(F)cc12)C1CCC1)CO3 (racemic)
(Q) N#CCCCN(Cc1ccccc1C(F)(F)F)C1CCNCC1
Q: Lab log: flag the item ( P or Q ) with the smaller Ki figure. Please identify the chosen entry by its label.
Result: Q

(A) Cc1ccc(Nc2ccccc2CN(C)C)c(N)c1
(B) CNCCCCOc1cccc2ccccc12
(C) CC(C)CN(C(=O)c1ccc(Cl)cc1Cl)[C@H]1CCNC1
Q: Form: Sort by [Ki] Order [ ascending ] Note for the reader: the ranking is given by listing the labels in the order requested.
Result: C, A, B

---

A compilation of Ki values for Sodium-dependent serotonin transporter (Homo sapiens) from the published literature.
property.label: Ki (nM)

# molecule, measurement.units, Ki
measured = [
    ("CC1(C)Cc2cccc(N3CCN(CCc4ccc5c(c4)NC(=O)CO5)CC3)c2O1", "nM", 2.51),
]

(P) Cc1c(F)cccc1C(=O)N(CC(C)C)[C@H]1CCNC1
(Q) COc1ccc(F)cc1CN(CC(C)C)C1CCNCC1
Q: Response body: label of entry with the larger Ki; valid values P , Q . # reply format: chosen label
Result: P
(P: 13 nM, Q: 1.4 nM)

(P) O=C1Cc2c(cccc2N2CCN(CC3CCc4[nH]c5ccc(F)cc5c4C3)CC2)N1 (stereo not given)
(Q) CCCN(CCCc1c[nH]c2ccc(F)cc12)C1COc2ccc3c(c2C1)C(=O)NCC3 (racemic)
(R) Cc1cc(N)c(Sc2ccccc2CN(C)C)cc1F
(S) O=c1[nH]c2cccc(OCC3CCN(CCC4CCc5[nH]c6ccc(F)cc6c5C4)CC3)c2o1 (stereo not given)
(T) FC(F)(F)CCN(Cc1ccccc1C(F)(F)F)C1CCNCC1
Q: Please give the order of these molecules when sorted by Ki, largest value leading. Would you mind listing the labels in the order requested?
Result: P, R, Q, S, T
(P: 1140 nM, R: 179 nM, Q: 61 nM, S: 10 nM, T: 2.8 nM)

---

Study the reported Ki values for Sodium-dependent serotonin transporter (Homo sapiens, UniProt P31645) given below; they originate from different publications.

Some solved entries appear below for comparison.
# compound, Ki
records = [
    ("C[C@H]1CN(C(=O)c2ccc(-c3cccc(F)c3)cc2)CCN1C(=O)c1ccc2cc[nH]c2c1", "> 10 µM"),
    ("CNc1cc(-c2csc(N(C)C(=O)c3ccc(F)cc3)n2)ncn1", "> 10 µM"),
]

Q: I'd like to know its Ki. The compound in question is Fc1cccc(Cl)c1Oc1cccc(F)c1OC1CCNC1 (stereo not given)
Result: > 4.9 µM

Q: Query: Ki; subject: Fc1ccccc1Oc1cccc(F)c1OC1CCNC1 (stereo not given)
Result: > 4.71 µM

Q: # get_value(readout='Ki', item= Fc1cccc(Cl)c1Oc1ncccc1OC1CNC1 )
Result: > 6.28 µM
